Experiment: yeast display, Sf9 membrane polyspecificity reagent, FACS + sequencing; frameworks hold sequencing errors
MEASURED PARAMETER: polyreactivity (PSR sort gate)

PRIMARY SEQUENCE	OBS VALUE
QVQLVESGRGLVQAGGSLRLSCAASGSTFVYNVMGWYRQAHGKERELVAAIRRRGGSTYADSVKGRFTITRDNAKNTVYLQMNSLNPEVTAVYYCAAGIPRYWYAGHYDYWGQGTKVTVSS	low polyreactivity
QVQLVESRGGLVQAGGSLRLSCSASGLTIWRYAMGWYRHEPGKEWEFVATISQNGGRTYYADSVKGRFTISRDNAKNTVYLQMNSLKPEDTAVYYCAADDWRWGYDYWGQGTQVTVSS	high polyreactivity
QVQLVESGGGLVQAGGSLRLSCAASGSTFFRYAMGLYRQAPGKEREFVAAITWSGTGTYYADSVKGRFTISRDNAKNTVYLQMNSLKPEDTAVYYCAARRSSNVRRDYWGQGTQVTVSS	high polyreactivity
QVQLVESGGGLVQAGGSLRLSCAASGRIFSVYARGWYRQAPGKERELVAAITWTGGRTYYADSVKGRFTISRDNAKNTVYLQMNSLKPEDTAVYYCAAQWVRSYQMYWGQGTQVTVSS	high polyreactivity

[in] Look at this sequence and give its reported polyreactivity (PSR sort gate). QVQLVESGGGLVQAGGSLRLSCAASGRIFVSYAMGWYRQAPGKERELVAAISSSGGSTYYADSVKGRFTISRDNAKNTVYLQMNSLKPEDTAVYYCNTDQRSRMDYWGQGTQVTVSS
[out] low polyreactivity

[in] Here is the next sequence: QVQLVESGGGLVQAGGSLRLSCAASGSTIDYYAMGLYRQAPGKERELVAGISASGGSTYYADSEKGRFTISRDNAKNTVYLQMNSLKPEDTAVYYCASYYKPPGYDYWGQGTQVTVSS
[out] low polyreactivity

###

Assay: yeast display, Sf9 membrane polyspecificity reagent, FACS + sequencing; frameworks hold sequencing errors
MEASURED PARAMETER: polyreactivity (PSR sort gate)

Worked set:
PRIMARY SEQUENCE	polyreactivity (PSR sort gate)
QVQLVESGGGLFQAGGSLRLTCAASGFTFSYNAMGWYRQAPGKERELVAAISSSGGSTYYADSVKVRFTISRENAKNTVYLPMNSLKPVDTAVYYCAVPYLTLYGRTYDYWGQGTLVTVSS	high polyreactivity
QVQLVESGGGLVQAGGSLRLSCAASGFILRNNAMGWSRQAPGKEREFVAAISSGTRTNYADSVKGRFTISSDNAKNTVYLQMNSLKPEDTAVYYCDAYPTRYYVGYDYWGQGTQVTVSS	high polyreactivity
QVQLVESGGGLVQAGGSLRLSCAASGIIFTGNAMGWYRQAPGKERELVAGITGSGGNTYYADSVKGRFTISRDNAKNTVYLQMNSLKPEDTAVYYCAARRHIFLLIIWSGRVDYWGQGTQVTVSS	low polyreactivity
QVQLVESGVGLVQAGGSLRLSCAASGFIFGVTTMGWYRLAPGKERELVAAISTLASSTFDADSVKGRFTISRDNAKNTVYLQMNSLKPEDTAVYYCAVDLNWFFSFGLDYWGQGTQLTVSS	low polyreactivity
QVQLVESGGGLVQAGGSLRLSCAASGRTLARNAMGWDRQAPGKERELVASINGRTTRTYYADSVKGRFTISRDNAKNTVYLQMNSLKPEDTAVYYCAADPPGYVYGKRYYWGQGTQVTVSS	high polyreactivity

// next item, polyreactivity (PSR sort gate) requested
[in] What value of measured polyreactivity (PSR sort gate) is listed for QVHLVESGAGLVQAGGSLRLSCAASGSTFAPNAMGWYRQAPGKERELVAAISSGGDSTNYADSVKGRFTISRDNAKNTVYLQMNSLKPEDTEVYYCAHGYWFVAYDYWGEGTQVTVSS ?
[out] low polyreactivity
